normalized growth reference
Assay Info: chemical genetic growth profiling, strain panel (AID 1159580);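 further: tested at 20 µM; growth read once vehicle control cultures reached saturation at 30 °C; 1 = growth at the plate median or of vehicle wells; lower values mean less growth of the strain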
Conditions: S. cerevisiae deletion strains, growth OD, locus YOR136W, strain idh2, stronger effect = lower value
In all, about 5,500 compounds went through this assay and about 2,000 (36%) were called active. Not shown: some 18% with an inconclusive outcome. The list shows a part of the results.
No unit in the answer, only the number.

molecule=CCCCOC(=O)c1ccccc1C(=O)OCc1ccccc1 quantitative_readout=0.972
molecule="CO[C@@]1(NC(=O)CSCC#N)C(=O)N2C(C(=O)O)=C(CSc3nnnn3C)CSC21 (stereo partly drawn)" quantitative_readout=1.04
molecule=COC(=O)C1=CCCN(C)C1 quantitative_readout=1

Q: Look up normalized growth: COc1c(OC)c2occc2c2oc(=O)ccc12
Ans: 0.995

Q: Give the measured normalized growth of C=C1CCC2C(CC2(C)C)C(=O)CCC1O (stereo not drawn) .
Ans: 1.01

Q: What does the data say about its normalized growth? Entry: COc1c2ccoc2c(OC)c2oc(=O)ccc12
Ans: 0.959

Q: Which normalized growth is reported for this molecule? COc1ccc(CCN2CCC(Nc3nc4ccccc4n3Cc3ccc(F)cc3)CC2)cc1
Ans: 0.98

Q: Returns the measured normalized growth for the input molecule. Input: COc1ccc2c(c1O)OCC1c3cc4c(cc3OC21)OCO4 (stereo not drawn)
Ans: 0.999

Q: Look up normalized growth for this molecule: CC(C)(C)CC(C)(C)c1ccc(O)c(Cc2ccc(Cl)cc2Cl)c1
Ans: 1.02

Q: What measured normalized growth goes with COc1ccc2c(c1OC)C(=O)OC2[C@H]1c2c(cc3c(c2OC)OCO3)CCN1C (stereo partly drawn) ?
Ans: 0.995

Q: normalized growth lookup needed for CC1(C)C2CC(=O)[C@]3(C)C(CC[C@@]4(C)[C@H](c5ccoc5)OC(=O)[C@H]5O[C@]543)[C@@]2(C)C=C[C@@H]1O (stereo partly drawn) , thanks.
Ans: 0.985

Q: Query (molecule): Cc1ccc(C)c(OCCCC(C)(C)C(=O)O)c1 ; field requested: normalized growth
Ans: 0.989

Q: Returns the measured normalized growth for the input molecule. Input: C=C1CCC2C(CC2(C)C)C(=C)CC/C1=N\O (stereo not drawn)
Ans: 0.972

Q: Reported normalized growth, molecule COc1cc([C@@H]2c3cc4c(c(O)c3C[C@H]3COC(=O)[C@@H]32)OCO4)cc(OC)c1OC : ____
Ans: 0.984
